Assay: Pharmacokinetics after a single oral administration (plasma, LC-MS/MS)
Settings: male, Crl:CD1 (ICR), mouse, plasma, 2 mg/kg
MEASURE: Cmax (ng/mL)

>>> data_value("CC[C@]1(c2cc(NS(=O)(=O)C3CC3)ccc2F)[C@@H]2CN(CC3(O)Cc4ccccc4C3)C[C@@H]21")
36.1

###

Assay: Pharmacokinetics after a single oral administration (plasma, LC-MS/MS)
Settings: male, Crl:CD1 (ICR), mouse, in vivo, 4 mg/kg
MEASURE: concentration at 0.5 h (ng/mL)

>>> data_value("CC[C@]1(c2cc(NS(=O)(=O)C3CC3)ccc2F)[C@@H]2CN(CC3(O)Cc4ccccc4C3)C[C@@H]21")
27.7

src = paper PMC9961271
